Source: PubChem BioAssay AID1745844

- Test system: rodent lifetime carcinogenesis bioassay, tumor incidence TD50
- assay.notes: carcinogenic potency in animals, long-term in vivo studies, CPDB compilation (AID 1745844)
- test.settings: rat; strain Fischer 344; females; in feed; site: any site (literature study); lesion: several types; types named in the paper; dosed 104 weeks; study length 107 weeks
measured.attribute: TD50
# include the unit after the value

*Q* Would you mind telling me what TD50 value was observed for ClC1(Cl)C2(Cl)C3(Cl)C4(Cl)C(Cl)(Cl)C5(Cl)C3(Cl)C1(Cl)C5(Cl)C24Cl (stereo unspecified) ?
*A* 22.4 mg/kg/day

====

- Tested on: rodent lifetime carcinogenesis bioassay, tumor incidence TD50
- assay.notes: carcinogenic potency in animals, long-term in vivo studies, CPDB compilation (AID 1745844)
- test.settings: mouse; strain B6C3F1; males; in feed; site: liver; lesion: hepatocellular carcinoma; dosed 68 weeks; study length 68 weeks
measured.attribute: TD50

*Q* Would you mind telling me what TD50 value was observed for ClC1=C(Cl)C2(Cl)C3C(Cl)C(Cl)CC3C1(Cl)C2(Cl)Cl (stereo unspecified) ?
*A* 0.878 mg/kg/day

====

- System: rodent lifetime carcinogenesis bioassay, tumor incidence TD50
- assay.notes: carcinogenic potency in animals, long-term in vivo studies, CPDB compilation (AID 1745844)
- test.settings: mouse; strain B6AKF1; males; oral dosing; site: liver; lesion: hepatoma; dosed 81 weeks; study length 81 weeks
The following compounds are listed with their measured TD50 values.

{"columns": ["smiles", "target.or.test.system", "TD50"],
 "data": [
  ["CCN(CC)C(=S)S[Se](SC(=S)N(CC)CC)(SC(=S)N(CC)CC)SC(=S)N(CC)CC", "rodent lifetime carcinogenesis bioassay, tumor incidence TD50", "10.2 mg/kg/day"]
]}

*Q* Would you mind telling me what TD50 value was observed for `CCCc1ccc2c(c1)OCO2` ?
*A* 117 mg/kg/day

====

- System: rodent lifetime carcinogenesis bioassay, tumor incidence TD50
- assay.notes: carcinogenic potency in animals, long-term in vivo studies, CPDB compilation (AID 1745844)
- test.settings: rat; strain Fischer 344; females; by gavage; site: liver; lesion: hepatocellular adenoma + hepatocellular carcinoma + neoplastic nodule; dosed 103 weeks; study length 106 weeks
measured.attribute: TD50 (mg/kg/day)
Could you give me the number in mg/kg/day? Just the number is fine.

*Q* Would you mind telling me what TD50 value was observed for `BrC(Br)Br` ?
*A* 676

====

- System: rodent lifetime carcinogenesis bioassay, tumor incidence TD50
- assay.notes: carcinogenic potency in animals, long-term in vivo studies, CPDB compilation (AID 1745844)
- test.settings: rat; strain Fischer 344; males; by gavage; site: all sites; lesion: monocytic leukemia; dosed 103 weeks; study length 106 weeks
measured.attribute: TD50

*Q* Would you mind telling me what TD50 value was observed for `C=CCOC(=O)CC(C)C` ?
*A* 149 mg/kg/day

====

- System: rodent lifetime carcinogenesis bioassay, tumor incidence TD50
- assay.notes: carcinogenic potency in animals, long-term in vivo studies, CPDB compilation (AID 1745844)
- test.settings: monkey; strain Rhesus [Macaca mulatta]; both sexes; in feed; site: esophagus; lesion: squamous-cell carcinoma; dosed 928 weeks; study length 1139 weeks
measured.attribute: TD50

*Q* Checklist item: TD50 tested on rodent lifetime carcinogenesis bioassay, tumor incidence TD50, entry `CN(N=O)C(N)=O` , value?
*A* 8.2 mg/kg/day
